Exercise: state measured hAMY3R EC50 (cAMP) for each of the binders provided.
- studyTarget: T1, hAMY3R (human, UniProt P30988)
- T1 sequence 1: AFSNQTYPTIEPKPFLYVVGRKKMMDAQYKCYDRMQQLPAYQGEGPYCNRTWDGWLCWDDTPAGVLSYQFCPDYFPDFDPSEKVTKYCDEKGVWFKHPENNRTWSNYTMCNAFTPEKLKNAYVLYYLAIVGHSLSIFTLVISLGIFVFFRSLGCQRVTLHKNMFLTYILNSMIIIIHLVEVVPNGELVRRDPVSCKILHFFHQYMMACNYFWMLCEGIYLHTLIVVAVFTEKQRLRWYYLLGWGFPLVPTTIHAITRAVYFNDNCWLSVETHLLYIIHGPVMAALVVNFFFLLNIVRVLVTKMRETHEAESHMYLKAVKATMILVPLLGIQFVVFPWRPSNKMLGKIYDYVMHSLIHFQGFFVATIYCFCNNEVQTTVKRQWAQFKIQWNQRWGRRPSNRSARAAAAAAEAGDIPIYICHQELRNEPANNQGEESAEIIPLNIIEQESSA
- T1 sequence 2: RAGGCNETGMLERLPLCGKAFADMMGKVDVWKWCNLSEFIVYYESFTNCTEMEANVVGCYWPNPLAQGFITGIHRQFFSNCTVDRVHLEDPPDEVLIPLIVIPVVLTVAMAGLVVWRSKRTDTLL
- testProtocol: cell-based or functional assay
Numbered stars: 1 amine (or outer) side, 2 acyl side, 3 side chain; on linkers, the order of the positions; unused ones are H or OH. Bridge positions count the residues as written; N and C are the ends. Square brackets hold non-standard residues; d marks the D form. Ends that are not written are not given here. * marks the point of attachment. C20 diacid = O=C(O)CCCCCCCCCCCCCCCCCCC(=O)*; γGlu = O=C(O)[C@H](CCC(=O)[*:2])N[*:1]; Hyp = O=C(O)[C@@H]1C[C@@H](O)CN1; Cit = NC(=O)NCCC[C@H](N)C(=O)O
The reply should be a number in pM, with the unit left off.

Task item: Entry KCNTATCATQRLANFLVHSSNNFGAILSSTNVGSNTY (ligand, disulfide 2-7) [hAMY1-37] : reported hAMY3R EC50 (cAMP) = ?
Reply: 10

Task item: Also need KCNTATCTVQ[Cit]LAHQIYQFTDKAKDNVAPPTNVGSNG[Hyp]-NH2 (disulfide 2-7 (inferred); ends not checked) [SEQ ID NO: 258] , thanks.
Reply: 10

Task item: Also need GCRFGTCTVQRLAHQIYQFTDKDKDNVAPRTKIGPNGY [SEQ ID NO: 367] , thanks.
Reply: 14

Task item: Also need GCRTGTCTVQRLAHQIAQFTDKFKDNVAPRSKISPQT[Hyp]-NH2 (disulfide 2-7 (inferred); ends not checked) [SEQ ID NO: 196] , thanks.
Reply: 114

Task item: Also need GCRWGTCTVQRLAHQIYQFTDKDKDNVAPSSKISPQT[Hyp]-NH2 (disulfide 2-7 (inferred); ends not checked) [SEQ ID NO: 202] , thanks.
Reply: 126

Task item: Also need GCRFGTCTVQRLAHFLYQFTDKDKDNVAPRTKVGSNGY [SEQ ID NO: 117] , thanks.
Reply: 24

Task item: Also need KCNTATCTVQRLAHQIYQFTKDKDNVAPPTNVGSNG[Hyp]-NH2 (disulfide 2-7 (inferred); not fully specified; ends not checked) [SEQ ID NO: 29] , thanks.
Reply: 8

Task item: Also need GCRFGTCTVQRLAHQIYQFTDKDKDNVAPRTNVSPQG[Hyp]-NH2 (disulfide 2-7 (inferred); ends not checked) [SEQ ID NO: 125] , thanks.
Reply: 27

Task item: Also need {C20 diacid-γGlu}-KCNTATCTVERLAHQIYQFTDKDKDNVAPPTNVGSNG[Hyp]-NH2 (disulfide 2-7 (inferred); ends not checked) [SEQ ID NO: 55] , thanks.
Reply: 12

Task item: Also need {C20 diacid-γGlu}-KCNTATCTVARLAHQIYQFTDKDKDNVAPPTNVGSNG[Hyp]-NH2 (disulfide 2-7 (inferred); ends not checked) [SEQ ID NO: 37] , thanks.
Reply: 10

Task item: Also need GCRTGTCTVQRLAHQIYQFTDKFKDNVAPRSKISPQTA [SEQ ID NO: 241] , thanks.
Reply: 242

Task item: Also need GCRFGTCTVQ[Cit]LAHQIYQFTDKDKDNVAPRTNVGPNG[Hyp]-NH2 (disulfide 2-7 (inferred); ends not checked) [SEQ ID NO: 270] , thanks.
Reply: 3

Task item: Also need {C20 diacid-γGlu}-KCNTATCTVQRLADQIYQFTDKDKDNVAPPTNVGSNG[Hyp]-NH2 (disulfide 2-7 (inferred); ends not checked) [SEQ ID NO: 5] , thanks.
Reply: 6

Task item: Also need GCRFGTCTVQRLAHQIYQFTDKDKDNVAPRSKVSPNG[Hyp]-NH2 (disulfide 2-7 (inferred); ends not checked) [SEQ ID NO: 175] , thanks.
Reply: 74

Task item: Also need GCRTGTCTVQRLAHQIYQFTDKFKDNVAPRSKISPQF[Hyp]-NH2 (disulfide 2-7 (inferred); ends not checked) [SEQ ID NO: 211] , thanks.
Reply: 151

Task item: Also need {C20 diacid-γGlu}-KCNTATCTVQRLAHQIYQFTDKDKDNVAPRTKVGSNG[Hyp] (disulfide 2-7 (inferred); ends not checked) [SEQ ID NO: 99] , thanks.
Reply: 17

Origin of the recorded values: patent US12139520B2
